- target-desc: T1, human PD-1 ECD/Fc fusion protein (human)
- T1 construct: also called huPD-1/Fc; HuPD-1 ECD/Fc
- T1 sequence (chain, as listed by the source limits assumed): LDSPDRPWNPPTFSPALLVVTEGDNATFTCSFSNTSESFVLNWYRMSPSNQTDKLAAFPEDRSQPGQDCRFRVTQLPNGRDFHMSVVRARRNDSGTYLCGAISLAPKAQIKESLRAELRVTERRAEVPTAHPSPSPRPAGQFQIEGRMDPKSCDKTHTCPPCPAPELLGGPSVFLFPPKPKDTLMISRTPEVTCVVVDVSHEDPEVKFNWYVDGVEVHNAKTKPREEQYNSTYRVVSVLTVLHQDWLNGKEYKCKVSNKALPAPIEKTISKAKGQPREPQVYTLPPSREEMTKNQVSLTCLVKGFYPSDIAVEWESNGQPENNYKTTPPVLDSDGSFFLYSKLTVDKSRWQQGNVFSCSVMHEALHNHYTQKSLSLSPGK
- experimental-protocol: BLI Octet, immobilized huPD-1-Fc, Ab analyte
pKd: −log10 of the molar value.
measure: pKd

stdin: Data request, read-out pKd, for mAb719c (antibody, V domains shown) VH: EVKLVESGGGLVKPGGSLKLSCTASGFSFSSHLMSWVRQTPEKRLEWVAAISGGGADTYYPDSVKGRFTISRDNAKNTLYLQMRSLRSEDTALYYCTRQILAFDSWGQGTTLTVSS VL: DIQMNQSPSSLSVSLGDTITITCHASQNIYVWLNWYQQKPGNIPKLLIYKASNLHTGVPSRFSGGGSGTGFTLTISSLQPEDIATYYCQQGQSYPWTFGGGTKLEIK
stdout: > 9.99
